SUBJECT OF TEST: T1, SdrF N1N2N3 (52-679), His-tagged recombinant A domain of S. epidermidis SdrF (Staphylococcus epidermidis (K28 genomic …, UniProt Q9KI14 53-678))
T1 construct: expressed in E. coli; also called SdrF A domain
T1 sequence: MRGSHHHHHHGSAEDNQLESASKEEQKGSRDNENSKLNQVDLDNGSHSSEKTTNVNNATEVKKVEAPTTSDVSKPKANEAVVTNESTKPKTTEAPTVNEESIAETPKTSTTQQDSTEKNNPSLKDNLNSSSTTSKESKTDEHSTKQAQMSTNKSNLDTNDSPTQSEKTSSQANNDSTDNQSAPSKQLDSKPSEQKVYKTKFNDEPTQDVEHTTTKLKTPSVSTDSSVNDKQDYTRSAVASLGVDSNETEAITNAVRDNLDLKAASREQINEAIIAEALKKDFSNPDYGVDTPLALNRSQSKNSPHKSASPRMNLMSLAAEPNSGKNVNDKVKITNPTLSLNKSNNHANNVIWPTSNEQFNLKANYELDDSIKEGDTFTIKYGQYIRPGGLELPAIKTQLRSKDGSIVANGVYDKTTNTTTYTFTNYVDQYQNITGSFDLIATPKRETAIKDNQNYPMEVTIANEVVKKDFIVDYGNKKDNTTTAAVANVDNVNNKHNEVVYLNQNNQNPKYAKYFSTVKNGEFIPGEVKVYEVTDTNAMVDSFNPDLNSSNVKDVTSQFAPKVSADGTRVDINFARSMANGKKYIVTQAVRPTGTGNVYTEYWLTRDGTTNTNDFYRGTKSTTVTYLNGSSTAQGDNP
TEST PROTOCOL: Biacore 3000, ligand capture of mAb, SdrF (N1N2N3) in flow
MEASURED ATTRIBUTE: pKd
On this scale, pKd is minus log10 of a concentration expressed in M (mol/L).

Worked examples follow.
BINDER: murine anti-SdrF monoclonal antibody 108-36 (antibody, V domains shown, Mouse hybridoma antibody (fusion F108)) VH: QVTLRESGPGILQPSQTLSLTCSFSGFSLNTSGMGVTWIRQPSGKGLEWLANIYWDDDKRYNPSLKSRLTISKANSRNQVFLKITSVDTADTATYYCTRPNYLGTVYWYFDVWGAGTMVTVSS VL: QIVLTQSPAIMSASPGEKVTMTCSASSSVSYMYWYQQKPGSSPRVLIYDTSNLASGVPVRFSGSGSGTSYSLTISRMEAEDAATYYCQQWNGYPPTFGAGTKLEVK
MEASURED ATTRIBUTE: pKd
MEASURED: 9.66
//
BINDER: Humanized 110-15 (antibody, V domains shown, Humanized (veneered) variable regions with 'the appropriate light or heavy chain constant region', expressed in NSO cells; also called 110-15VL-Hu/110-15VH-Hu) VH: EVQLVESGGGLVQPGGSLKLSCAASGFAFSSYDMSWVRQTPEKRLEWVAYISSGGGITYYPDTVKGRFTISRDNSKNTLYVQMSSLRAEDTAVYYCTRHDRDSWFAYWGQGTLVTVSS VL: EIVLTQSPGTMSASPGERGTMSCSASSSVRYMYWYRQKPGQSPRLLIYDTSNLASGVPARFSGSGSGTSYSLTISRMEAEDAATYYCQQWSSYPPTFGGGTKLEMK
MEASURED ATTRIBUTE: pKd
MEASURED: 9.13
//
BINDER: Humanized 108-1 (antibody, V domains shown, Humanized (veneered) variable regions spliced into plasmids with 'the appropriate light or heavy chain constant region', expressed in NSO cells) VH: QVQLVQSGAEVVKPGASVKLSCKASGFNIKDTYIHWVKQRPGQGLEWIGRIDPANGNTHYDSQFQGKATITADTSTSTAYLQLSSLRSEDTAVYYCTRRVGYAMDYWGQGTTVTVSS VL: DIVMTQSQKFMSTSVGDRVTITCKASQDVNTALAWYQQKPGQSPKLLIYSASYRYTGVPSRFSGSGSGTDFTFTISSVQAEDLAVYYCQQHYSTPPYTFGGGTKLEIK
MEASURED ATTRIBUTE: pKd
MEASURED: 8.74

Which pKd is reported for this binder? murine anti-SdrF monoclonal antibody 108-1 (antibody, V domains shown, Mouse hybridoma antibody (Balb/C, fusion F108)) VH: EVQLQQSGAELVKPGASVKLSCTASGFNIKDTYIHWVKQRPEQGLEWIGRIDPANGNTHYDSQFQGKATITADTSSNTAYLQLSSLTSDDTAVYYCTRRVGYAMDYWGQGTSVTVSS VL: DIVMTQSHKFMSTSVGDRVIITCKASQDVNTALAWYQQKPGQSPKLLIYSASYRYTGVPDRFTGSGSGTDFTFTISSVQAEDLAVYYCQQHYSTPPYTFGGGTKLEIK
8.80
